Test system: glucose-6-phosphate dehydrogenase-6-phosphogluconolactonase (Plasmodium falciparum 3D7)
Assay: inhibition of malaria parasite G6PD (PfGluPho) – biochemical, fluorescence intensity, uHTS, primary screen (AID 504690)
Settings: PfGluPho enzyme, NADPH resazurin-diaphorase fluorescence; at 20 µM
The whole screen tested about 350,000 compounds, of which about 2,700 (0.77%) were called active.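 The calls were made as follows: active = inhibition reaching at least a set limit at 20 µM in the primary screen (cut at about 59% in these data); inactive = the rest.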 Many of the other results were omitted from the sample, so actives are more common in it than they were.
Output constraint: value belongs to active, inactive

Give the logged outcome of this assay for the following compound: COc1cc(OC)c(C(=O)Nc2ccc(N(C)C)cc2)cc1OC active

// return assay outcome for N/C(=N\OS(=O)(=O)c1cccc([N+](=O)[O-])c1)c1ccncc1 inactive

Call for entry CCC(C)C(=O)Nc1cc([N+](=O)[O-])ccc1Cl (stereo not drawn) : inactive

Entry O=c1[nH]c2ccccc2s1 : call = ? inactive

Just curious, what result did O=C(OCc1ccccc1)N1CCC2CC1c1ccc(-c3ccc4c(c3)OCO4)cc12 (stereo not drawn) get here? inactive

Could you kindly confirm the outcome this assay logged for COc1cc(OC)c(C(=O)Nc2ccccc2-c2ccccc2)cc1OC ? inactive

Returns: the outcome recorded for CN(CC(=O)Nc1cccc2c1CCCC2)S(=O)(=O)c1ccc(Cl)cc1 in this assay. inactive

Dear colleague, could you share the recorded outcome for Nc1ccc2[nH]c(=S)sc2c1 when you have a moment? active

Would you mind telling me which call this test gave Cc1c(NC(=O)CSc2cccc3cccnc23)c(=O)n(-c2ccccc2)n1C ? inactive

How was CCC(C)NCCOCCOc1ccc(Br)cc1C (stereo not drawn) classified in this test? inactive

Hello, I am checking results. What call was entered for COc1ccc(Cl)cc1C(=O)Nc1ccc(N(C)C(C)=O)cc1 ? inactive

What did this assay record as the result for COc1cccc(NC(=O)NCc2ccc(F)cc2)c1 ? active

Per the records of this test, what outcome belongs to Cc1ccc(OCC(=O)Nc2ccccc2Sc2ccc(Cl)cc2)c([N+](=O)[O-])n1 ? active

====

System: glucose-6-phosphate dehydrogenase-6-phosphogluconolactonase (Plasmodium falciparum 3D7)
Experiment: inhibition of malaria parasite G6PD (PfGluPho) – biochemical, fluorescence intensity, uHTS, primary screen (AID 504690)
Conditions: PfGluPho enzyme, NADPH resazurin-diaphorase fluorescence; at 20 µM
The campaign covered roughly 350,000 compounds. About 2,700 (0.77%) were called active.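 Rule for the calls: active = inhibition reaching at least a set limit at 20 µM in the primary screen (cut at about 59% in these data); inactive = the rest.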 What follows is part of a selection rich in actives, with near analogues and random picks from the rest.
Please answer using one outcome listed in active, inactive

Entry Cc1cc(C)n2nc(CNS(=O)(=O)c3c(F)c(F)c(F)c(F)c3F)nc2n1 : call = ? inactive

Recorded test call requested for Cn1c(CCC(=O)OCC(=O)NCc2ccccc2Cl)nc(=O)c2ccccc21 active

Identify the outcome logged in this assay for the compound shown: O=S(=O)(NC1CC1)c1ccc(F)c(F)c1 inactive

Hello, I am checking results. What call was entered for Cn1sc(=O)c2cc(S(=O)(=O)NC3CC3)ccc21 ? active

Each compound tested received a call. Report the one for CC(=O)Nc1sc2c(c1C(c1cccc(F)c1)N1CCN(CCO)CC1)CCCC2 (stereo unspecified) . inactive

For CCOc1ccccc1Nc1ccc2nonc2c1[N+](=O)[O-] , which call appears in the assay record? active

Please state the recorded outcome for this compound: CC(OC(=O)CCc1nc(=O)c2ccccc2n1C)C(=O)NCc1ccc2c(c1)OCO2 (stereo unspecified) inactive

Query: recorded result category for COc1ccc(OC)c(/C=C/C(=O)c2ccc3c(c2)OCO3)c1 in this test inactive

Dear all, I need the recorded test outcome for CCOC(=O)c1cnn2c(SC)ncnc12 , thank you. inactive

Assay result, entry O=C(CCN1C(=O)COc2ccccc21)NCCCN1CCN(c2ccc(F)cc2)CC1 — outcome? inactive

How was CC(C)C(c1nnnn1C1CCCC1)N1CCN(c2ccccc2F)CC1 (stereo unspecified) classified in this test? inactive

Just curious, what result did Cc1cccc(C)c1NC(=O)C1CCCN1C(=O)OC(C)(C)C (stereo unspecified) get here? inactive

Identify the outcome logged in this assay for the compound shown: O=C(Nc1ccc(N2CCN(C(=O)c3ccccc3)CC2)c(Cl)c1)c1cccnc1 inactive

What outcome does the record of this test show for O=C1C=CC(=O)N1c1ccc(N2CCCCC2)cc1 ? active

Outcome logged for Oc1[nH]c2ccccc2c1N=Nc1c(F)c(F)c(F)c(F)c1F in this assay: inactive

Fill in: this test's call for Cc1ccc(OCCNC(=O)CNC(=O)c2ccc(C)c(C)c2)cc1 is ___ inactive

# lookup: test call for COC(=O)C1(CCSC)NC(c2ccc(OC)cc2OC)C2C(=O)N(c3cccc(C(C)=O)c3)C(=O)C21 (stereo unspecified) inactive

What did this assay record as the result for COc1ccccc1CN1CC(C(=O)NCCc2cn[nH]c2)CCC1=O (stereo unspecified) ? inactive

# lookup: test call for Cc1ccc(NC(=O)Cn2sc3ccccc3c2=O)cc1 active

What did this assay record as the result for COc1ccc(NC(=O)c2sc(N3CCOCC3)nc2-c2ccccc2)c(OC)c1 ? inactive

Recorded call for O=C(Cn1nc(C(=O)O)c2ccccc2c1=O)Nc1ccc(F)cc1 ? inactive

Give the logged outcome of this assay for the following compound: Cc1ccccc1Nc1c([N+](=O)[O-])ccc2nonc12 inactive

Kindly provide the recorded test outcome for the following compound: Cc1cc(C)c2c(c1)c(C)cc1nnc(SCC(=O)NCc3ccco3)n12 inactive

Field: outcome | Entry: O=C(NCc1cccnc1)c1ccc(CS(=O)(=O)c2ccc(Br)cc2)o1 inactive

Which result was noted for this compound in the test: CCN(CC)c1ccc(C(=O)c2cnc(/N=C/N(C)C)s2)cc1 inactive

Please let me know the test result on file for Cc1ccc(/C=C/C(=O)Nc2cc(S(=O)(=O)N3CCCCCC3)ccc2OCC(F)(F)F)o1 . inactive

Field: outcome | Entry: O=C(CCN1CCCCC1)N=Nc1c(O)[nH]c2ccccc12 inactive

# fetch the recorded call for O=C(Cc1ccccc1)N/N=C/c1ccc(Cl)cc1Cl here inactive

Per the assay record, what outcome was assigned to Cc1ccc(SC(C)C(=O)NCc2ccc(F)cc2)cc1 (stereo unspecified) ? inactive

Which outcome did this test record for the compound O/N=C(\c1ccc2c(c1)OCCO2)C1CCCCC1 ? inactive

Returns: the outcome recorded for CCN(C(=O)COC(=O)CCC(=O)c1cccs1)C1CCCCC1 in this assay. inactive

All values here come from PubChem BioAssay AID504690.
